methodSummary: soluble on expression in E. coli; label from the status in PepcDB or PDB records
measuredProperty: soluble on expression in E. coli

>  <primarySequence>
MGSDKIHHHHHHMAVRKAMKYSLGPVLWYWPKETLEEFYQQAATSSADVIYLGEAVCSKRRATKVGDWLEMAKSLAGSGKQIVLSTLALVQASSELGELKRYVENGEFLIEASDLGVVNMCAERKLPFVAGHALNCYNAVTLKILLKQGMMRWCMPVELSRDWLVNLLNQCDELGIRNQFEVEVLSYGHLPLAYSARCFTARSEDRPKDECETCCIKYPNGRNVLSQENQQVFVLNGIQTMSGYVYNLGNELASMQGLVDVVRLSPQGTDTFAMLDAFRANENGAAPLPLTANSDCNGYWRRLAGLELQA

>  <measurement>
not soluble

$$$$
>  <primarySequence>
MGSDKIHHHHHHMFDDADDIDTETVEEWEASAEFGLLYTSGNTETESLKGKFTASRDVQNWRHKGVFDYYTSEQKDQDTGEMNETADRIFISAQSNYKFDPDSRDSLFVFGSYEEDEFSGFAYQATVATGYGARYRYDEDIYADYEIGPGYSRTKPVQVEGEPPVESDGSMILRLAGSLNWKISENSRFSALLSSEVGEDNTKSKAELSVSANINSALAMKVSLGANHNSHVADESIEKLDTETAVTLVYSF

>  <measurement>
not soluble

$$$$

---

methodSummary: soluble on expression in E. coli; label from the status in PepcDB or PDB records
measuredProperty: soluble on expression in E. coli

>  <primarySequence>
YASQSAGKEYYKHIEKIIVDNDVYEKSLEGERTFDINYQGIKINADLIKDGKHELTIVNKKDGDILITFIKKG

>  <measurement>
not soluble

$$$$
>  <primarySequence>
MGSDKIHHHHHHMIIMIPFKSMRDQAGLNRQHIFDLARLPPDLLAPLDLGQHERQLILLGHAGRLLWERVQKHATDPVHPIDSYTIGVVEQWAALALPHTRIRFVYPRGLPANRHVGLQRLGTLAGWHHPSPFMVGIDARWGSWFAYRAAIIVDSELPASPVEDHGHPCVDCTAKPCIGTCPASALDSGTMDMNACTASGSLKPRPARTAAWRDRPAL

>  <measurement>
not soluble

$$$$
>  <primarySequence>
MGSDKIHHHHHHMDSVKLIDLSEMRDILRSVNPFPGRWSFITSVEYMLDSRLYVDSIGDDAKVVRATLGPHDRNILDFGTGSGVFAIALRQVLPELDISAVDTTDNKSQSHPDFSDGQAAAHQRLIYPPLAERFRISFNHYNGHLLPYPDGSFDAISAYAVIEHIPHEELDAAMREIARVLKDDGKLFVFKMPRKLALVEHVAGILGLGRHDTLYGDGEALRLFRSYGWKVEKTFKSNMVFDYPGWLTNRLYHPLKLIDRILYWSPWRLFAHHNNFVLRKLERPQL

>  <measurement>
not soluble

$$$$

---

methodSummary: soluble on expression in E. coli; label from the status in PepcDB or PDB records

>  <primarySequence>
MAHHHHHHMEVVVKSIGTAFTVAVIPVLKDNYSYVIHDKATNTLAAVDVSVDIDPVIDYVRRLGGVDRTTDLRTILSTHKHHDHSGGNISLQKKLNAMGAFRIIGGANEPIPGVTEKVREGDHFSIGELKVDVLDAPCHTSGHVLYKVYHPQKAENGIALFTGDTMFVGGIGAFFEGDAVLMCSALRKVYNLNGACESSACDATDVQKRDNHTYIFPGHEYTVNFLRFSRDALPASHPDVSFVEAQLRRYTESVAGNVPTVPSTLAEEKRQNLFLRTCDEAFVRVMNKGETAVKLMDFLYNTCP

>  <soluble on expression in E. coli>
soluble

$$$$
>  <primarySequence>
MAHHHHHHMCSVPISCSSTHTHTPHSLIVMSAPKKVALVTGANRGIGFATARRLGELGFKVLLGARDAKRGEEAVDTLRNDKLDVDLLLMTPTEHTSVEAAVQKVEADYKRLDVLINNAALMDFDNKVFPLNIQRMRDEFEINFFATVDITNSFLPLMLRSSEAPRLVFVSTPLGTHETVDRPQNKYAHPNLTAYKCTKSAVNMYAHNLAKYLENYAEEAGGSAASAKVNCCYPGYVQTDMCFNSTEAHFTPYEGAETSVWLATLPADGPTGGFYHRAQKLPW

>  <soluble on expression in E. coli>
soluble

$$$$
